Where a name gives a salt, the structure may show the parent alone.
The entries below are paired with their reported melting point.

Compound	melting point, °C
COc1ccc2cc(-c3ccc(N4CC5CCC(C4)N5C)nn3)ccc2c1 (as salt: fumaric acid salt)	242
CN1C2CCC1CN(c1ccc(-c3ccc(Cl)cc3)nn1)C2	180
CN1C2CCC1CN(c1ccc(-c3cccs3)nn1)C2 [Compound E1]	156
CN1C2CCC1CN(c1ccc(-c3ccccc3)cn1)C2	110.5

* * *

The entries below are paired with their reported melting point.
Structures can show the parent of a compound that is named as a salt.

Molecule	melting point
CN1C2CCC1CN(c1nnc(-c3ccccc3)o1)C2 (as salt: fumaric acid salt)	170 to 191 °C
CN1C2CCC1CN(c1nnc(-c3ccccc3)s1)C2 (as salt: fumaric acid salt)	192 to 200 °C
COc1cccc(-c2ccc(N3CC4CCC(C3)N4C)nn2)c1	92 to 97 °C
CN1C2CCC1CN(c1ccc(-c3cccc(F)c3)nn1)C2 [Compound E11]	149 to 150 °C
COc1ccc(-c2ccc(N3CC4CCC(C3)N4C)nn2)cc1	154 to 155 °C
COc1ccccc1-c1ccc(N2CC3CCC(C2)N3C)nn1	170 to 172 °C
CN1C2CCC1CN(c1ccc(-c3ccccc3N)nn1)C2 (as salt: fumaric acid salt)	186 to 195 °C
